# systemName: Botulinum neurotoxin type A light chain protease (Clostridium botulinum A str. ATCC 3502)
# experimentNotes: Clostridium botulinum neurotoxin A protease inhibition, microsphere cleavage flow cytometry, dose response (AID 651879)
# assaySetup: multiplex microsphere protease cleavage assay
Activity calls are given as the source filed them. How the calls were made is not given here.
Pick one and only one: active, inactive

Consider the following illustrative entries.
COc1ccc(N2N=C(c3ccccn3)CC2c2ccccc2)cc1 (configuration not stated) : inactive
c1ccc(C2CC(c3ccncc3)=NN2c2ccccc2)cc1 (configuration not stated) : inactive
CSc1ccc(C2=NN(c3ccc(S(N)(=O)=O)cc3)C(c3ccccc3)C2)cc1 (configuration not stated) : inactive
COc1ccc(N2N=C(c3cccnc3)CC2c2ccccc2)cc1 (configuration not stated) : inactive
c1ccc(C2CC(c3ccccn3)=NN2c2ccccc2)cc1 (configuration not stated) : inactive
O=C(c1ccc(N2N=C(c3ccccc3)CC2c2ccccc2)cc1)N1CCOCC1 (configuration not stated) : inactive
COc1ccc(N2N=C(c3ccccc3)CC2c2ccccc2)cc1 (configuration not stated) : inactive
c1ccc(C2=NN(c3ccccc3)C(c3ccccc3)C2)cc1 (configuration not stated) : inactive
CSc1ccc(C2=NN(c3ccc([N+](=O)[O-])cc3)C(c3ccccc3)C2)cc1 (configuration not stated) : active
NS(=O)(=O)c1ccc(N2N=C(c3ccccc3)CC2c2ccccc2)cc1 (configuration not stated) : inactive

Problem: Please indicate how the test categorized COc1ccc(N2N=C(c3ccc(SC)cc3)CC2c2ccccc2)cc1 (configuration not stated) .
Result: inactive

Problem: Further, for CS(=O)(=O)c1ccc(N2N=C(c3ccncc3)CC2c2ccccc2)cc1 (configuration not stated) ?
Result: inactive

Problem: Also need CS(=O)(=O)c1ccc(N2N=C(c3ccccc3)CC2c2ccccc2)cc1 (configuration not stated) , thanks.
Result: inactive

Problem: Now try CSc1ccc(C2=NN(c3ccccc3)C(c3ccccc3)C2)cc1 (configuration not stated) .
Result: inactive

Problem: Please give the result for c1ccc(C2CC(c3cccnc3)=NN2c2ccccc2)cc1 (configuration not stated) too.
Result: inactive

Problem: Same again, this time with CSc1ccc(C2=NN(c3ccc(C(=O)N4CCCCC4)cc3)C(c3ccccc3)C2)cc1 (configuration not stated)
Result: inactive

Problem: Again, but for O=C(c1ccc(N2N=C(c3ccccc3)CC2c2ccccc2)cc1)N1CCCCC1 (configuration not stated)
Result: inactive

Problem: Request: CNC(=O)c1ccc(N2N=C(c3ccccc3)CC2c2ccccc2)cc1 (configuration not stated)
Result: inactive
